Sequence of the target: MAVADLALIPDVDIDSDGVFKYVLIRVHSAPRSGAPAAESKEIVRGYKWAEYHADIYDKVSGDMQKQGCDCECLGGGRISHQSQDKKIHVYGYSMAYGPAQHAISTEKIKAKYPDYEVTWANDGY
pKi: −log10 of the molar value.
PROPERTY LABEL: pKi

>>> df
                               compound  property_label  test_value
0  C=C(CC)C(=O)c1ccc(OCC(=O)O)c(Cl)c1Cl             pKi        3.74
1   CCN1C(=O)C=CC1=O [N-ETHYLMALEIMIDE]             pKi        3.68

FYI, the data here is from ChEMBL document CHEMBL5104217.
